Test system: VchCAST RNA-guided transposition machinery (E. coli BL21(DE3) host, lacZ target)
Test: relative integration efficiency (T-RL orientation) vs wild-type transposon end (log2 (normalized fold change)); transposon end mutated: right end (5 bp flank + 75 bp right end); higher = more efficient transposition
PROPERTY_NAME: relative integration efficiency (log2)
Response field accepts a number only; no unit should be typed.

Tell me the measured relative integration efficiency (log2) of `ACATTTGTTCATACAACCCTAAAATGATAATTACACCCATAAATGGATCATTATCACACCCAATTTAACTATAACGCTCTGATCATAGTCAGACCAACATTGCTACGACCCGTATTCGCACCGACAC` , please.
-5

State the recorded relative integration efficiency (log2) for this entry: `ACATTTGTTGATACAACCATAAATAGATAATTACACCCATAAATTGATAATTATCACACCCATAAATTGATATTGCCTCTGATCATAGTCAGACCAACATTGCTACGACCCGTATTCGCACCGACAC`
-0.642

Look up relative integration efficiency (log2): `ACATTTGTTGATACAACCATCAAATGATAATTCCACCCATAAATTGATAATTATCACACCCAATTTAACTATAACGCTCTGATCATAGTCAGACCAACATTGCTACGACCCGTATTCGCACCGACAC`
-1.53

Dear colleague, I am looking for the recorded relative integration efficiency (log2) of the following sequence: `ACATTTGTCGATCCAACCATAAAATGATAATTACACCCATAAATGGATAATTATCACACCCAATTTAACTATAACGCTCTGATCATAGTCAGACCAACATTGCTACGACCCGTATTCGCACCGACAC`
-1.4

Name the recorded relative integration efficiency (log2) for `ACATTTGTCGATCCAACCATAAAATGATAATTACACCCATAAATTGATCATTATCACACCCAATTTAACTATAACGCTCTGATCATAGTCAGACCAACATTGCTACGACCCGTATTCGCACCGACAC` .
-1.61

Would you mind telling me what relative integration efficiency (log2) value was observed for `ACATTTGTTGATACAACCATTAAATGATAATTCCACCCAGAAATTGATAATTATCACACCCAATTTAACTATAACGCTCTGATCATAGTCAGACCAACATTGCTACGACCCGTATTCGCACCGACAC` ?
-3.25

Reported relative integration efficiency (log2) for `ACATTTGTTGATACAACCATAAAATGATAATTACACCCATTTTATGATAATTATCACACCCATAAATTGATATTGCCTCTGATCATAGTCAGACCAACATTGCTACGACCCGTATTCGCACCGACAC` : what is it?
2.79

# input sequence: `ACATTTGTTGATACAACCATAAAATGATAATTACACCCATAAATTGATAATTATCACACCCATAAATTGATATTGCCTCTGATAACTTCGTATAGCATACATTATACGAAGTTATTCGCACCGACAC` ; wanted: its relative integration efficiency (log2)
-3.13

Find the recorded relative integration efficiency (log2) belonging to `ACATTTGTTCATACAACCATAAAACGATAATTACACCCATAAATTCATCATTATCACACCCAATTTAACTATAACGCTCTGATCATAGTCAGACCAACATTGCTACGACCCGTATTCGCACCGACAC` and report it.
-2.49

relative integration efficiency (log2) lookup needed for `ACATTTGTTGATACAACCATAAAAGGATAATTACCCCCATCAATTGATAATTATCCCACCCAATTTAACTATAACGCTCTGATCATAGTCAGACCAACATTGCTACGACCCGTATTCGCACCGACAC` , thanks.
-0.787

Just for reference, the supplement of paper PMC10201428 is where these values come from.
